- Setup conditions: in 1,4-dioxane, 308.15 K
Attribute measured: solubility (mole fraction)

>>> number("[NH3+]C1CCCCC1.[S-]c1nc2ccccc2s1")
0.000291

----------
- Setup conditions: in 1,4-dioxane, 343.15 K
Attribute measured: solubility (mole fraction)

>>> number("[NH3+]C1CCCCC1.[S-]c1nc2ccccc2s1")
0.00217

----------
- Setup conditions: in toluene, 318.15 K
Attribute measured: solubility (mole fraction)

>>> result("[NH3+]C1CCCCC1.[S-]c1nc2ccccc2s1")
"6.78e-05"

----------
- Setup conditions: in 1,4-dioxane, 348.15 K
Attribute measured: solubility (mole fraction)

>>> number("[NH3+]C1CCCCC1.[S-]c1nc2ccccc2s1")
0.00266

----------
- Setup conditions: in water, 338.15 K
Attribute measured: solubility (mole fraction)

>>> number("[NH3+]C1CCCCC1.[S-]c1nc2ccccc2s1")
"8.97e-05"

----------
- Setup conditions: in toluene, 303.15 K
Attribute measured: solubility (mole fraction)

>>> result("[NH3+]C1CCCCC1.[S-]c1nc2ccccc2s1")
"2e-05"

----------
- Setup conditions: in 1,4-dioxane, 318.15 K
Attribute measured: solubility (mole fraction)

>>> number("[NH3+]C1CCCCC1.[S-]c1nc2ccccc2s1")
0.000608

----------
- Setup conditions: in MIBK, 308.15 K
Attribute measured: solubility (mole fraction)

>>> number("[NH3+]C1CCCCC1.[S-]c1nc2ccccc2s1")
0.000506

----------
- Setup conditions: in MIBK, 323.15 K
Attribute measured: solubility (mole fraction)

>>> number("[NH3+]C1CCCCC1.[S-]c1nc2ccccc2s1")
0.00111

----------
- Setup conditions: in 1,4-dioxane, 323.15 K
Attribute measured: solubility (mole fraction)

>>> number("[NH3+]C1CCCCC1.[S-]c1nc2ccccc2s1")
0.000793

----------
- Setup conditions: in toluene, 343.15 K
Attribute measured: solubility (mole fraction)

>>> number("[NH3+]C1CCCCC1.[S-]c1nc2ccccc2s1")
0.000344

----------
- Setup conditions: in toluene, 348.15 K
Attribute measured: solubility (mole fraction)

>>> number("[NH3+]C1CCCCC1.[S-]c1nc2ccccc2s1")
0.000421

----------
- Setup conditions: in MIBK, 303.15 K
Attribute measured: solubility (mole fraction)

>>> number("[NH3+]C1CCCCC1.[S-]c1nc2ccccc2s1")
0.000389

----------
- Setup conditions: in water, 303.15 K
Attribute measured: solubility (mole fraction)

>>> number("[NH3+]C1CCCCC1.[S-]c1nc2ccccc2s1")
"1.32e-05"

----------
- Setup conditions: in MIBK, 338.15 K
Attribute measured: solubility (mole fraction)

>>> number("[NH3+]C1CCCCC1.[S-]c1nc2ccccc2s1")
0.00215

----------
- Setup conditions: in toluene, 313.15 K
Attribute measured: solubility (mole fraction)

>>> number("[NH3+]C1CCCCC1.[S-]c1nc2ccccc2s1")
"5.64e-05"

----------
- Setup conditions: in water, 308.15 K
Attribute measured: solubility (mole fraction)

>>> number("[NH3+]C1CCCCC1.[S-]c1nc2ccccc2s1")
"1.95e-05"

----------
- Setup conditions: in toluene, 338.15 K
Attribute measured: solubility (mole fraction)

>>> number("[NH3+]C1CCCCC1.[S-]c1nc2ccccc2s1")
0.00026

----------
- Setup conditions: in MIBK, 348.15 K
Attribute measured: solubility (mole fraction)

>>> number("[NH3+]C1CCCCC1.[S-]c1nc2ccccc2s1")
0.00306

----------
- Setup conditions: in water, 323.15 K
Attribute measured: solubility (mole fraction)

>>> result("[NH3+]C1CCCCC1.[S-]c1nc2ccccc2s1")
"4e-05"

----------
- Setup conditions: in 1,4-dioxane, 303.15 K
Attribute measured: solubility (mole fraction)

>>> number("[NH3+]C1CCCCC1.[S-]c1nc2ccccc2s1")
0.000208

----------
- Setup conditions: in 1,4-dioxane, 333.15 K
Attribute measured: solubility (mole fraction)

>>> number("[NH3+]C1CCCCC1.[S-]c1nc2ccccc2s1")
0.00141

----------
- Setup conditions: in 1,4-dioxane, 338.15 K
Attribute measured: solubility (mole fraction)

>>> result("[NH3+]C1CCCCC1.[S-]c1nc2ccccc2s1")
0.00169

----------
- Setup conditions: in toluene, 308.15 K
Attribute measured: solubility (mole fraction)

>>> result("[NH3+]C1CCCCC1.[S-]c1nc2ccccc2s1")
"4.26e-05"

----------
- Setup conditions: in MIBK, 313.15 K
Attribute measured: solubility (mole fraction)

>>> number("[NH3+]C1CCCCC1.[S-]c1nc2ccccc2s1")
0.000672

----------
- Setup conditions: in MIBK, 318.15 K
Attribute measured: solubility (mole fraction)

>>> number("[NH3+]C1CCCCC1.[S-]c1nc2ccccc2s1")
0.00085
